Provenance of the data: ChEMBL document CHEMBL1144245

System: T47D
procedureText: Growth inhibition of human T47D cells
Assay type: functional
readoutKind: GI50 (nM)

Use these answered entries as a reference point.
INSERT INTO assay_data (linenotation, testedsystem, readoutkind, endpointunit, datavalue) VALUES
  ('COc1cc(-c2c(C#N)c(=O)oc3c2ccc2c3ccn2C)cc(Br)c1OC', 'T47D', 'GI50', 'nM', 0.7),
  ('COc1cc(-c2c(C#N)c(=O)oc3cc(N)ccc23)cc(Br)c1OC', 'T47D', 'GI50', 'nM', 630);

[I] COc1cc(-c2c(C#N)c(=O)oc3c2ccc2c3ccn2C)cc2c1OCO2
[II] COc1cc(-c2c(C#N)c(=O)oc3cc(N(C)C)ccc23)cc(Br)c1OC
q: I or II : whose GI50 is greater? Could you answer with the label of the item you picked?
a: II
(II: 620 nM, I: 25 nM)
